Kindly supply the reported pest or weed control at 250 g/ha values for the records listed here.
System: Alopecurus myosuroides (ALOMY)
PROTOCOL_DESCRIPTION: Glasshouse assay for herbicidal activity, pre-/post-emergence (percentage phytotoxicity)
Format: in vivo
CONDITION_SUMMARY: Alopecurus myosuroides, 360 h; Rate 250 g/ha; post-emergence; visual assessment 15 DAA; 100%=total damage, 0%=no damage; read-out: Post-emergence herbicidal activity (percentage phytotoxicity), ALOMY POST
# unit: % | format: bare number

*Q* Quick one: pest or weed control at 250 g/ha of Cc1cc(C)c(C2C(=O)CC(CCNS(=O)(=O)C(C)C)C2=O)c(C)c1 (stereo not shown) ?
*A* 80

*Q* How about this compound: Cc1cc(C)c(C2C(=O)C[C@H](CCNC(=O)C3=NOC(C)(C)C3)C2=O)c(C)c1 (stereo partly shown)
*A* 80

*Q* How about this compound: Cc1cc(-n2cc(Cl)cn2)cc(C)c1C1C(=O)CC(CCNC(=O)NC(C)(C)C)C1=O (stereo not shown)
*A* 90

*Q* How about this compound: Cc1cc(-c2ncc(Cl)cc2F)cc(C)c1C1C(=O)CC(CCNC(=O)C2=NOC(C)(C)C2)C1=O (stereo not shown)
*A* 100

====

Kindly supply the reported pest or weed control at 250 g/ha values for the records listed here.
System: Echinochloa crus-galli (ECHCG)
PROTOCOL_DESCRIPTION: Glasshouse assay for herbicidal activity, pre-/post-emergence (percentage phytotoxicity)
Format: in vivo
CONDITION_SUMMARY: Echinochloa crus-galli, post-emergence, 360 h, Rate 250 g/ha; post-emergence; visual assessment 15 DAA; 100%=total damage, 0%=no damage; read-out: Post-emergence herbicidal activity (percentage phytotoxicity), ECHCG POST
# unit: % | format: bare number

*Q* Quick one: pest or weed control at 250 g/ha of Cc1cc(-c2ccc(F)cc2)cc(C)c1C1C(=O)CC(CCNC(=O)C2=NOC(C)(C)C2)C1=O (centres unmarked) ?
*A* 100

*Q* How about this compound: Cc1cc(C)c(C2C(=O)CC(CCNC(=O)NC(=O)c3ccc(Cl)cc3)C2=O)c(C)c1 (centres unmarked)
*A* 90

*Q* How about this compound: Cc1cc(C)c(C2C(=O)CC(CCNc3ccc([N+](=O)[O-])cn3)C2=O)c(C)c1 (centres unmarked)
*A* 100

*Q* How about this compound: Cc1cc(C)c(C2C(=O)CC(CCNC(=O)NCc3ccccc3)C2=O)c(C)c1 (centres unmarked)
*A* 90

*Q* How about this compound: Cc1cc(C)c(C2C(=O)CC(CCNC(=O)Nc3ccccc3F)C2=O)c(C)c1 (centres unmarked)
*A* 40

*Q* How about this compound: Cc1cc(C)c(C2C(=O)C[C@@H](CCNC(=O)C3=NOC(C)(C)C3)C2=O)c(C)c1 (some centres unmarked)
*A* 100

*Q* How about this compound: Cc1cc(C)c(C2C(=O)CC(CCNc3nc4ccc(Cl)cc4o3)C2=O)c(C)c1.Cl (centres unmarked)
*A* 100

*Q* How about this compound: Cc1cc(-c2ncc(Cl)cc2F)cc(C)c1C1C(=O)CC(CCNC(=O)Nc2ccccn2)C1=O (centres unmarked)
*A* 100

====

System: Echinochloa crus-galli (ECHCG)
PROTOCOL_DESCRIPTION: Glasshouse assay for herbicidal activity, pre-/post-emergence (percentage phytotoxicity)
Type: in vivo
CONDITION_SUMMARY: Echinochloa crus-galli, post-emergence, 360 h, Rate 250 g/ha; post-emergence; visual assessment 15 DAA; 100%=total damage, 0%=no damage; read-out: Post-emergence herbicidal activity (percentage phytotoxicity), ECHCG POST
MEASUREMENT_NAME: pest or weed control at 250 g/ha (%)
# unit: % | format: bare number

*Q* Quick one: pest or weed control at 250 g/ha of Cc1cc(-n2cc(Cl)cn2)cc(C)c1C1C(=O)CC(CCNc2ccc(C(F)(F)F)cn2)C1=O (centres unmarked) [Compound A100] ?
*A* 100

*Q* How about this compound: Cc1cc(C)c(C2C(=O)CC(CCNS(=O)(=O)c3ccc(OC(F)(F)F)cc3)C2=O)c(C)c1 (centres unmarked) [Compound A85]
*A* 40

*Q* How about this compound: Cc1cc(-n2cc(Cl)cn2)cc(C)c1C1C(=O)CC(CCNC(=O)Nc2ncccn2)C1=O.Cl (centres unmarked) [Compound A32]
*A* 100

*Q* How about this compound: CC#Cc1cc(C)c(C2C(=O)CC(CCNc3ccc(C#N)cn3)C2=O)c(C)c1 (centres unmarked) [Compound A112]
*A* 100

*Q* How about this compound: Cc1cc(C)c(C2C(=O)CC(CCNC(N)=O)C2=O)c(C)c1 (centres unmarked) [Compound A6]
*A* 100

*Q* How about this compound: Cc1cc(C)c(C2C(=O)CC(CCNC(=O)NC(=O)c3cccc(C(F)(F)F)c3)C2=O)c(C)c1 (centres unmarked) [Compound A66]
*A* 60

*Q* How about this compound: C=Cc1cc(C)cc(C)c1C1C(=O)CC(CCNC(=O)C2=NOC(C)(C)C2)C1=O (racemic) [Compound A122]
*A* 90

*Q* How about this compound: Cc1cc(C)c(C2C(=O)CC(CCNC(=S)Nc3ccccc3)C2=O)c(C)c1 (centres unmarked) [Compound A90]
*A* 60

====

Tested on: Echinochloa crus-galli (ECHCG)
PROTOCOL_DESCRIPTION: Glasshouse assay for herbicidal activity, pre-/post-emergence (percentage phytotoxicity)
Assay type: in vivo
CONDITION_SUMMARY: Echinochloa crus-galli, pre-emergence, 480 h, Rate 250 g/ha; pre-emergence; visual assessment 20 DAA; 100%=total damage, 0%=no damage; read-out: Pre-emergence herbicidal activity (percentage phytotoxicity), ECHCG PRE
Kindly supply the reported pest or weed control at 250 g/ha values for the records listed here.
# unit: % | format: bare number

*Q* Quick one: pest or weed control at 250 g/ha of Cc1cc(C)c(C2C(=O)CC(CCNC(=O)NC(=O)c3ccccc3C(F)(F)F)C2=O)c(C)c1 (centres unmarked) [Compound A60] ?
*A* 70

*Q* How about this compound: Cc1cc(C)c(C2C(=O)CC(CCNS(=O)(=O)c3ccc(F)c(Cl)c3)C2=O)c(C)c1 (centres unmarked) [Compound A75]
*A* 70

*Q* How about this compound: Cc1cc(C)c(C2C(=O)CC(CCNC(=O)N(C)c3ccccn3)C2=O)c(C)c1 (centres unmarked) [Compound A11]
*A* 100

*Q* How about this compound: Cc1cc(-n2cc(Cl)cn2)cc(C)c1C1C(=O)CC(CCNS(=O)(=O)c2ccc(Cl)cc2)C1=O (centres unmarked) [Compound A37]
*A* 0

*Q* How about this compound: Cc1cc(-c2ncc(F)cn2)cc(C)c1C1C(=O)CC(CCNc2ccc(C(F)(F)F)cn2)C1=O (centres unmarked) [Compound A120]
*A* 90

*Q* How about this compound: Cc1cc(-n2cc(Cl)cn2)cc(C)c1C1C(=O)CC(CCNC(=O)Nc2ccncn2)C1=O.Cl (centres unmarked) [Compound A33]
*A* 70

*Q* How about this compound: Cc1cc(C)c(C2C(=O)CC(CCNC(=O)N3CCOCC3)C2=O)c(C)c1 (centres unmarked) [Compound A47]
*A* 80

*Q* How about this compound: Cc1cc(C)c(C2C(=O)CC(CCNC(N)=O)C2=O)c(C)c1 (centres unmarked) [Compound A6]
*A* 90

====

Tested on: Echinochloa crus-galli (ECHCG)
PROTOCOL_DESCRIPTION: Glasshouse assay for herbicidal activity, pre-/post-emergence (percentage phytotoxicity)
Assay type: in vivo
CONDITION_SUMMARY: Echinochloa crus-galli, post-emergence, 360 h, Rate 250 g/ha; post-emergence; visual assessment 15 DAA; 100%=total damage, 0%=no damage; read-out: Post-emergence herbicidal activity (percentage phytotoxicity), ECHCG POST
Kindly supply the reported pest or weed control at 250 g/ha values for the records listed here.
# unit: % | format: bare number

*Q* // lookup pest or weed control at 250 g/ha | system=Echinochloa crus-galli (ECHCG) | key= Cc1cc(C)c(C2C(=O)CC(CCNS(=O)(=O)c3ccccc3F)C2=O)c(C)c1 (stereo not shown) [Compound A76]
*A* 40

*Q* How about this molecule: Cc1cc(C)c(C2C(=O)CC(CCNC(=O)NC(=O)c3ccc(C(F)(F)F)cc3F)C2=O)c(C)c1 (stereo not shown) [Compound A70]
*A* 90

*Q* How about this molecule: Cc1ccc(C(=O)NC(=O)NCCC2CC(=O)C(c3c(C)cc(C)cc3C)C2=O)cc1 (stereo not shown) [Compound A55]
*A* 80

*Q* How about this molecule: Cc1cc(C)c(C2C(=O)CC(CCNC(=S)Nc3ccc(F)cc3)C2=O)c(C)c1 (stereo not shown) [Compound A89]
*A* 0
